Ref: PubChem BioAssay

assay: growth suppression of yeast trafficking mutant, preliminary HTS, modulators of trafficking downstream of Golgi apparatus project, 1536-format plate, OD 615 nm (AID 637); conditions: yeast transport mutant growth, absorbance 615 nm, 18 h; hits give high values
The following compounds are listed with their measured inhibition values.
Answer in %, number only, no unit symbol.

[
  {
    "Compound": "CCN(CC)C(=O)C1=C(C)NC(=O)NC1c1c(F)cccc1Cl (stereo not given)",
    "Unit": "%",
    "Recorded Result": 4.92
  }
]

Inquiry: inhibition lookup needed for CCN(CC)CCCNc1oc(-c2cccc(Cl)c2)nc1C#N , thanks.
Reply text: -0.67

Inquiry: Which inhibition value belongs to O=C(O)CCC(=O)NC1CCCCC1NC(=O)CCC(=O)O (stereo not given) ?
Reply text: 0.73

Inquiry: Requested read-out: inhibition. Entry: CCN1CCN(c2nc3c(c(=O)n(C)c(=O)n3C)n2Cc2cccc3ccccc23)CC1
Reply text: 0.91

Inquiry: Field request: inhibition | item: O=C(CN1CCCN(S(=O)(=O)c2ccc(Br)cc2)CC1)Nc1ccc2c(c1)OCO2
Reply text: 3.77

Inquiry: So what's the measured inhibition for this one? CC(=O)OCC(=O)[C@@]12OC(C)(C)O[C@@H]1C[C@H]1[C@@H]3C[C@H](F)C4=CC(=O)C=C[C@]4(C)[C@@]3(F)[C@@H](O)C[C@@]12C
Reply text: -1.83

Inquiry: Given CC1(C)C(c2cccs2)=[N+]([O-])C2(CCCCC/C2=N\O)N1O (stereo not given) , state its recorded inhibition.
Reply text: -1.27

Inquiry: Given Cc1occc1-c1nnc(SCC(=O)N2CCOCC2)n1Cc1ccco1 , state its recorded inhibition.
Reply text: 5.09

Inquiry: Please give the measured inhibition for this compound: COc1ccc(CCN2C(=O)CCC2(C)C(=O)NCc2cccnc2)cc1OC (stereo not given)
Reply text: -2.22

Inquiry: Entry CCOC(=O)c1cccc(NC(=O)CCn2nnc3ccccc32)c1 : reported inhibition = ?
Reply text: 0.48

====

assay: growth inhibitors of H69AR lung tumor, primary screen, human, duplicate replicates (AID 580); settings: H69AR lung tumor cells viability, ATP luminescence, 72 h; at 10 µM; hits give low values;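 also: 100% = mean luminescence of untreated wells and 0% = no signal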
Decision: viability beneath 90% gives yes; viability meeting or exceeding 90% gives no.

Some solved cases for reference:
[
  {
    "Molecule": "O=C(CSc1nnc(COc2ccc(Cl)cc2)o1)OC1CCCCC1",
    "Class Label": "no"
  },
  {
    "Molecule": "O=C(CSc1nc2ccccc2o1)N1CCN(C(=O)c2ccco2)CC1",
    "Class Label": "no"
  },
  {
    "Molecule": "O=c1nc(N2CCCC2)nc(Nc2ccccc2)[nH]1",
    "Class Label": "yes"
  },
  {
    "Molecule": "COc1ccccc1NC(=O)NCc1ccc2c(c1)OCO2",
    "Class Label": "no"
  },
  {
    "Molecule": "CCCCCn1c(CN(C)Cc2ccccc2)nc2c1c(=O)n(C)c(=O)n2C",
    "Class Label": "yes"
  },
  {
    "Molecule": "CCCCc1ccc(NC(=O)COCC)cc1",
    "Class Label": "no"
  },
  {
    "Molecule": "CCn1ncc(C2=NOC(C(=O)Nc3ccc4c(c3)OCO4)C2)c1C (stereo unspecified)",
    "Class Label": "no"
  },
  {
    "Molecule": "O=C(Nc1ccccn1)N1CCOCC1",
    "Class Label": "no"
  },
  {
    "Molecule": "Cc1cccn2c(=O)c3cc(C(=O)NC4CCCC4)c(=N)n(C4CCCC4)c3nc12",
    "Class Label": "yes"
  },
  {
    "Molecule": "Nc1nc(-c2ccc(Cl)cc2)nn1C(=O)c1cccnc1",
    "Class Label": "no"
  }
]

Inquiry: Given Cc1ccc2[nH]c(=O)c(CN(CCCO)S(=O)(=O)c3c(C)ccc4nsnc34)cc2c1 , is recorded viability strictly lower than 90%?
Reply text: no

Inquiry: Record CCOc1cc(C2C(C#N)=C(N)Oc3n[nH]c(CC)c32)ccc1OCCN1CCOCC1 (stereo unspecified) : is its viability strictly below 90%?
Reply text: no
